# Tested Target: Phosphatidylinositol 4,5-bisphosphate 3-kinase catalytic subunit gamma isoform (Homo sapiens, UniProt P48736)
# Sequence (P48736 whole entry, canonical isoform): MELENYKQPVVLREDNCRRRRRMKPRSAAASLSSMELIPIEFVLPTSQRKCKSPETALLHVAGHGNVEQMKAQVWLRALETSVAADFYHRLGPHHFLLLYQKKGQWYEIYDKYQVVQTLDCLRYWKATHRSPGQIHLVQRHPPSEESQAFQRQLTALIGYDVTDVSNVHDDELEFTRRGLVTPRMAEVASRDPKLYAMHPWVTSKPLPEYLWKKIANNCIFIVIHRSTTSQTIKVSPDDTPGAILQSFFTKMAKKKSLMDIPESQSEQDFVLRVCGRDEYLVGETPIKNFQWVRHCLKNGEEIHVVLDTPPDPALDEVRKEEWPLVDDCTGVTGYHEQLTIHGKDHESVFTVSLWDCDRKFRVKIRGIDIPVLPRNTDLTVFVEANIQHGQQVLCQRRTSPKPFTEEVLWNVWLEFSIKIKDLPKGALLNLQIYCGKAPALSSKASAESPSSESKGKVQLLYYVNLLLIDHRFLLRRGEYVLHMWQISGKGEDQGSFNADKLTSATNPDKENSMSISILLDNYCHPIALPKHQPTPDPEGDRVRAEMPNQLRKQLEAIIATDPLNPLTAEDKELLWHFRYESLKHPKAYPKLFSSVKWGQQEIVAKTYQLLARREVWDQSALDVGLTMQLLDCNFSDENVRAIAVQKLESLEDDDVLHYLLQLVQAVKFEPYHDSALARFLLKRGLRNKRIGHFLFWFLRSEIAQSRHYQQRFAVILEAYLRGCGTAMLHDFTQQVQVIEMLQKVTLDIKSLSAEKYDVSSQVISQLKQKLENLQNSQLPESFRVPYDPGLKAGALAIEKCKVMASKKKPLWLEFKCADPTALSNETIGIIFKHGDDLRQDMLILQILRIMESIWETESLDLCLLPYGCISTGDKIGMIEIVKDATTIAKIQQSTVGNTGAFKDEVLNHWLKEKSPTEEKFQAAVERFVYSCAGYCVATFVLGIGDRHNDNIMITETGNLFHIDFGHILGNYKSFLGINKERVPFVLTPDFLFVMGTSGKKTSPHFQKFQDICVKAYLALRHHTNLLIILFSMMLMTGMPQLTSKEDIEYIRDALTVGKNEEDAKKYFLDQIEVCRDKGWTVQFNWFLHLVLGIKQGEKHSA
# Test Method Notes: Inhibition of PI3Kgamma (unknown origin) using PIP2 as substrate preincubated for 15 mins followed by substrate addition measured after 60 mins in presence of biotin-labeled PIP3 by HTRF assay
Reported Endpoint: IC50 (µM)

INSERT INTO results (given_smiles, unit_of_measure, recorded_value) VALUES
  ('COc1ncc(-c2ccc3cn[nH]c3c2)cc1NS(C)(=O)=O', 'µM', 2.51),
  ('COc1ncc(-c2ccc3c(c2)COC3)cc1NS(C)(=O)=O', 'µM', 3.16);

* * *

# Tested Target: Phosphatidylinositol 4,5-bisphosphate 3-kinase catalytic subunit alpha isoform (Homo sapiens)
# Test Method Notes: Inhibition of PI3Kalpha (unknown origin) using PIP2 as substrate preincubated for 15 mins followed by substrate addition measured after 60 mins in presence of biotin-labeled PIP3 by HTRF assay
Reported Endpoint: IC50 (µM)

I = COc1ncc(-c2ccc3c(c2)COC3)cc1NS(C)(=O)=O
II = COc1ncc(-c2ccc3cn[nH]c3c2)cc1NS(C)(=O)=O
Request: // returns I or II , whichever has the lower IC50 Answer by stating the label of the chosen item.
Result: I
(I: 3.98 µM, II: 7.94 µM)

* * *

# Test Method Notes: Clearance in mouse liver microsomes at 0.5 uM measured up to 30 mins by LC-MS/MS analysis
# Format: ADME, Microsome
# Details: 0.5 h
Reported Endpoint: CLH (mL/min/g)

INSERT INTO measurements (given_smiles, reported_endpoint, recorded_value) VALUES
  ('COc1ncc(-c2cc3c(c(-c4nnc(C)o4)c2)COC3)cc1NS(C)(=O)=O', 'CLH', 1);

1 = COc1ncc(-c2cc3c(c(NC(=O)c4cccc(C)n4)c2)COC3)cc1NS(C)(=O)=O
2 = COc1ncc(-c2cc(-c3ncc(CN4C[C@@H](C)O[C@@H](C)C4)o3)c3cn[nH]c3c2)cc1NS(C)(=O)=O
Request: // returns 1 or 2 , whichever has the lower CLH Answer by stating the label of the chosen item.
Result: 1
(1: 1.4 mL/min/g, 2: 5.9 mL/min/g)

* * *

# Tested Target: Phosphatidylinositol 4,5-bisphosphate 3-kinase catalytic subunit delta isoform (Homo sapiens)
# Sequence (O00329 whole entry, canonical isoform): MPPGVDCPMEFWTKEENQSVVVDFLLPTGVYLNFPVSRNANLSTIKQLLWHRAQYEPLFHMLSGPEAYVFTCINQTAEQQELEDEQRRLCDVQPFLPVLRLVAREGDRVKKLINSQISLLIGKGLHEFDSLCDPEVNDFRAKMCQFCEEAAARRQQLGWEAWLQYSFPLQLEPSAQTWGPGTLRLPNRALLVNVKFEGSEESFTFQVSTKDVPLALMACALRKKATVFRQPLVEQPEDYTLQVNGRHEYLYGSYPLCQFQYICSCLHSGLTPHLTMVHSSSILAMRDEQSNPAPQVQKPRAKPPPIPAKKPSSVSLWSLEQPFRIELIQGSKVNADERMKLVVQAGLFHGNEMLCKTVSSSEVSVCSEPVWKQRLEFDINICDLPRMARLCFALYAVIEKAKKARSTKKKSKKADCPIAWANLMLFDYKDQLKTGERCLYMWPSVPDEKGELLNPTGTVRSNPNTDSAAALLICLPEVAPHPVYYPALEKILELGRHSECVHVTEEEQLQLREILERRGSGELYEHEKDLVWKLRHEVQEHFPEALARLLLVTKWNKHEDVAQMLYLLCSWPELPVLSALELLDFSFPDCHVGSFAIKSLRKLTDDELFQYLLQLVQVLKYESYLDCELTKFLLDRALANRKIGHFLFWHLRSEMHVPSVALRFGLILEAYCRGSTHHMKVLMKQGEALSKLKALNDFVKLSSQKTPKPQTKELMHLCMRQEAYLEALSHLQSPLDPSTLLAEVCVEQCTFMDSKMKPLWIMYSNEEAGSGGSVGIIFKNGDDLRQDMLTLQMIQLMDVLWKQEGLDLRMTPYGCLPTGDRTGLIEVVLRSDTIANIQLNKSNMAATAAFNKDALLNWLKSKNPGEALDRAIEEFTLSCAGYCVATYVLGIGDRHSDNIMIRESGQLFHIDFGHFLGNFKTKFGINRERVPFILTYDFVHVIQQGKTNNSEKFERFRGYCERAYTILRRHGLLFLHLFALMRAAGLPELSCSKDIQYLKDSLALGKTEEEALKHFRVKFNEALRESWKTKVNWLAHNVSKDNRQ
Reported Endpoint: IC50 (µM)

Known results for compounds:
INSERT INTO assay_data (given_smiles, unit_of_measure, recorded_value) VALUES
  ('COc1ncc(-c2cc3c(c(NC(C)=O)c2)COC3)cc1NS(C)(=O)=O', 'µM', 0.398),
  ('COc1ncc(-c2cc3c(c(NC(=O)c4cccc(C)n4)c2)COC3)cc1NS(C)(=O)=O', 'µM', 0.00501),
  ('COc1ncc(-c2cc3c(c(-c4nnc(C)o4)c2)COC3)cc1NS(C)(=O)=O', 'µM', 0.02);

I = COc1ncc(-c2cc3c(c(-c4ccccn4)c2)COC3)cc1NS(C)(=O)=O
II = COc1ncc(-c2cc3c(c(NC(=O)c4csc(C)n4)c2)COC3)cc1NS(C)(=O)=O
III = COc1ncc(-c2ccc3c(c2)COC3)cc1NS(C)(=O)=O
Request: Order each entry by recorded IC50, climbing from the minimum. Response field: labels, in requested order.
Result: II, I, III
(II: 0.00794 µM, I: 0.0631 µM, III: 0.794 µM)

* * *

# Test Method Notes: Kinetic solubility in phosphate buffered saline at pH 7.4 after 1 hr by chemiluminescent nitrogen detection method
# Assay type: physicochemical
# Details: read-out: Kinetic_solubility
Reported Endpoint: solubility kinetic at 1 h (µg/mL)

Known results for compounds:
INSERT INTO results (given_smiles, reported_endpoint, unit_of_measure, recorded_value) VALUES
  ('COc1ncc(-c2ccc3cn[nH]c3c2)cc1NS(C)(=O)=O', 'solubility kinetic at 1 h', 'µg/mL', 31),
  ('COc1ncc(-c2cc3c(c(NC(=O)c4cccc(C)n4)c2)COC3)cc1NS(C)(=O)=O', 'solubility kinetic at 1 h', 'µg/mL', 50),
  ('COc1ncc(-c2cc3c(c(-c4nnc(C)o4)c2)COC3)cc1NS(C)(=O)=O', 'solubility kinetic at 1 h', 'µg/mL', 195);

I = COc1ncc(-c2cc3c(c(NC(=O)CN4CCOCC4)c2)COC3)cc1NS(C)(=O)=O
II = COc1ncc(-c2ccc3c(c2)COC3)cc1NS(C)(=O)=O
Request: Pick one: I or II . Which has the bigger solubility kinetic at 1 h number? Answer by stating the label of the chosen item.
Result: I

* * *

# Tested Target: 3',5'-cyclic-AMP phosphodiesterase 4B (Homo sapiens, UniProt Q07343)
# Sequence (Q07343 whole entry): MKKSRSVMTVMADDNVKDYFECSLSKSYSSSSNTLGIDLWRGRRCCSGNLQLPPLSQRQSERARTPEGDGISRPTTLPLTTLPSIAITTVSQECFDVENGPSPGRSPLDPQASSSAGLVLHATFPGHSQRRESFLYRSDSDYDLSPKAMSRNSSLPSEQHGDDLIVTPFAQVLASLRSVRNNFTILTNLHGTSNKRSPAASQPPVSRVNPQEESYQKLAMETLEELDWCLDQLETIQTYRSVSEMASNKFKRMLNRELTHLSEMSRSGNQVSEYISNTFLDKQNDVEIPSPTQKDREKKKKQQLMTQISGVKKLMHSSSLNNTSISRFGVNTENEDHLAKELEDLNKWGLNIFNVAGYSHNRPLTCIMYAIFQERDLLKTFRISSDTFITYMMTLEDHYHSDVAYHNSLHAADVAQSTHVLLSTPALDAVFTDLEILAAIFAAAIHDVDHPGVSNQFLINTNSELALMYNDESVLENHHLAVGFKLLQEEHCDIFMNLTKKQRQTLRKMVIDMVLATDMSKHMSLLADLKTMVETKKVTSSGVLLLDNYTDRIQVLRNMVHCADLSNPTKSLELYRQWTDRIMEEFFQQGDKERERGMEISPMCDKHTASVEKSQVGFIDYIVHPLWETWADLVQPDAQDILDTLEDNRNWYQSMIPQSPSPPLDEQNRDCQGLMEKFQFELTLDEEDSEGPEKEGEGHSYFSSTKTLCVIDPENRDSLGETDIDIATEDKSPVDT
pIC50: −log10 of the molar value.
Reported Endpoint: pIC50

Request: Lookup: pIC50 / 3',5'-cyclic-AMP phosphodiesterase 4B (Homo sapiens, UniProt Q07343) / `COc1ncc(-c2cc3c(c(NC(=O)CN4CCOCC4)c2)COC3)cc1NS(C)(=O)=O`
Result: < 5.00

* * *

# Test Method Notes: Drug uptake in blood of Brown Norway rat acute OVA model of TH2-driven lung inflammation at 3 mg/kg, po pretreated for 30 mins followed by OVA challenge measured 1 hr post dose
# Format: ADME, organism-based
# Details: read-out: Drug uptake
Reported Endpoint: concentration at 1 h (nM)
Quick note: give the figure in nM, leave out the unit.

Request: Give its concentration at 1 h value. Item: `COc1ncc(-c2cc3c(c(NC(=O)CN4CCOCC4)c2)COC3)cc1NS(C)(=O)=O`
Result: 190

* * *

# Tested Target: Mitogen-activated protein kinase 14 (Homo sapiens, UniProt Q16539)
# Test Method Notes: Inhibition of P38alpha (unknown origin)
Reported Endpoint: IC50

Request: Lookup: IC50 / Mitogen-activated protein kinase 14 (Homo sapiens, UniProt Q16539) / `COc1ncc(-c2cc3c(c(NC(=O)CN4CCOCC4)c2)COC3)cc1NS(C)(=O)=O`
Result: > 10 µM

* * *

# Organism: Homo sapiens
# Test Method Notes: Selectivity ratio of IC50 for PI3Kgamma (unknown origin) to IC50 for PI3Kdelta (unknown origin)
Reported Endpoint: Ratio IC50

Known results for compounds:
INSERT INTO assay_data (given_smiles, reported_endpoint, recorded_value) VALUES
  ('COc1ncc(-c2cc3c(c(NC(=O)CN4CCOCC4)c2)COC3)cc1NS(C)(=O)=O', 'Ratio IC50', 50),
  ('COc1ncc(-c2cc(NC(=O)c3csc(C)n3)c3cn[nH]c3c2)cc1NS(C)(=O)=O', 'Ratio IC50', 16),
  ('COc1ncc(-c2ccc3c(c2)COC3)cc1NS(C)(=O)=O', 'Ratio IC50', 4),
  ('COc1ncc(-c2cc3c(c(NC(=O)c4cccc(C)n4)c2)COC3)cc1NS(C)(=O)=O', 'Ratio IC50', 25),
  ('COc1ncc(-c2cc3c(c(NC(C)=O)c2)COC3)cc1NS(C)(=O)=O', 'Ratio IC50', 13),
  ('COc1ncc(-c2cc3c(c(-c4nnc(C)o4)c2)COC3)cc1NS(C)(=O)=O', 'Ratio IC50', 5);

I = COc1ncc(-c2cc3c(c(-c4ccccn4)c2)COC3)cc1NS(C)(=O)=O
II = COc1ncc(-c2cc3c(c(NC(=O)c4csc(C)n4)c2)COC3)cc1NS(C)(=O)=O
Request: // returns I or II , whichever has the lower Ratio IC50 Answer by stating the label of the chosen item.
Result: I
(I: 6, II: 25)

* * *

# Test Method Notes: Cmax in Sprague-Dawley rat at 3 mg/kg, po measured up to 7 hrs by LC-MS/MS analysis
# Type: ADME, organism-based
# Design: dose 3 mg/kg, route oral
# Details: in vivo
Reported Endpoint: Cmax

Request: Give its Cmax value. Item: `COc1ncc(-c2cc(-c3ncc(CN4C[C@@H](C)O[C@@H](C)C4)o3)c3cn[nH]c3c2)cc1NS(C)(=O)=O`
Result: < 2 ng/mL

* * *

# Tested Target: Phosphatidylinositol 4-kinase alpha (Homo sapiens, UniProt P42356)
# Sequence (P42356 whole entry): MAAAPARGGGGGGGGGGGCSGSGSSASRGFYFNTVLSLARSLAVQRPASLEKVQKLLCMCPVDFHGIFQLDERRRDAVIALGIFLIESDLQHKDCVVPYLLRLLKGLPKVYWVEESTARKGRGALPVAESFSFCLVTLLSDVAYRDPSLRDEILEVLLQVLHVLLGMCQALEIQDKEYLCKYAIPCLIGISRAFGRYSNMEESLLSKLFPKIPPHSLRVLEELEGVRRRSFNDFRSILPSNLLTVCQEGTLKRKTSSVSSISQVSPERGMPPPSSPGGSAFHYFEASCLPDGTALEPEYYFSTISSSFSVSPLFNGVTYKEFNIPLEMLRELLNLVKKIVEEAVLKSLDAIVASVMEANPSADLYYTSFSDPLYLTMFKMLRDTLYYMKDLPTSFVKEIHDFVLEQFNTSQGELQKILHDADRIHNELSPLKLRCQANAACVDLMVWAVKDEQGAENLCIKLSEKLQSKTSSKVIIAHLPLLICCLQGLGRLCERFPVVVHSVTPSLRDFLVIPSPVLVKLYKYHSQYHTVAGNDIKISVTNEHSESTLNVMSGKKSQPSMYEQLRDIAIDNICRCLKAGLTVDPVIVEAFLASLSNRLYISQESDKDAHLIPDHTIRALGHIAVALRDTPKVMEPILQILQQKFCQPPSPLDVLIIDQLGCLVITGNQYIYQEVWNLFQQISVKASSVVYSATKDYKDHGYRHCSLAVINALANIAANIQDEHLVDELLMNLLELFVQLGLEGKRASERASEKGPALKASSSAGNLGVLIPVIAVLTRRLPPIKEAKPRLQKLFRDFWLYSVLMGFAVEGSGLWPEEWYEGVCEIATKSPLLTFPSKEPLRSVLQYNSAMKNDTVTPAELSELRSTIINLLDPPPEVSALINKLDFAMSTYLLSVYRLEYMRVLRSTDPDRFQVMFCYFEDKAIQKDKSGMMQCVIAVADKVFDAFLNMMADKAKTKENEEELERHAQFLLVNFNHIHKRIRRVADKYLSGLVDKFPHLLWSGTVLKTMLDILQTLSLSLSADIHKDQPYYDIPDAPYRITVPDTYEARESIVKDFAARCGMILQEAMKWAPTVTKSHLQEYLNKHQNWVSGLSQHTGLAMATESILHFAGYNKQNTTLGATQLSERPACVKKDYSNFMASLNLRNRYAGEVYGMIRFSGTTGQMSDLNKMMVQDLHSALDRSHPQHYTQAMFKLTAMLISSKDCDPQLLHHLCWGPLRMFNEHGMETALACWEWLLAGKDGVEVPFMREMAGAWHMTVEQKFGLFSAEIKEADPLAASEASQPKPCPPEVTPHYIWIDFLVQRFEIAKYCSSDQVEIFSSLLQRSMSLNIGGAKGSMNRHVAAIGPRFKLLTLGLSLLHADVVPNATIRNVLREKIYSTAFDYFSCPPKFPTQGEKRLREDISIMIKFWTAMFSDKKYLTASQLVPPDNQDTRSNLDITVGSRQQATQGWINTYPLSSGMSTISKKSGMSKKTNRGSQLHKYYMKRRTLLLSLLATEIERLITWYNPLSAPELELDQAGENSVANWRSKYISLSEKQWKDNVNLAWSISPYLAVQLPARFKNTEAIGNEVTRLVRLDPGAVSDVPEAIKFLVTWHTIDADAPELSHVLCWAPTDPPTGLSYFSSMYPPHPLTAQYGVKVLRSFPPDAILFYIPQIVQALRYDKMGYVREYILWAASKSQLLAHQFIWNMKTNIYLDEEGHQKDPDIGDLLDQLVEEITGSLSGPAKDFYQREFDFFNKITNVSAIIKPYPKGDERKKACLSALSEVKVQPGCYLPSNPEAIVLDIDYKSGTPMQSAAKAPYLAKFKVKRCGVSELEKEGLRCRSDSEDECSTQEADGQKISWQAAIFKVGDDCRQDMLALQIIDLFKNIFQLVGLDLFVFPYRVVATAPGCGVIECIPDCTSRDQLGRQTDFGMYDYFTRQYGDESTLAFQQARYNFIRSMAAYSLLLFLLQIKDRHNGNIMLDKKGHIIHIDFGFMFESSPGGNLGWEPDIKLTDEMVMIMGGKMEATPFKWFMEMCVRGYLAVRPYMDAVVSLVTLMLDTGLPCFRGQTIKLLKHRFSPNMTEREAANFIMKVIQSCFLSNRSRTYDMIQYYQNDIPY
Reported Endpoint: IC50

Request: Lookup: IC50 / Phosphatidylinositol 4-kinase alpha (Homo sapiens, UniProt P42356) / `COc1ncc(-c2cc3c(c(NC(=O)CN4CCOCC4)c2)COC3)cc1NS(C)(=O)=O`
Result: > 10 µM

* * *

# Tested Target: Tyrosine-protein kinase ITK/TSK (Homo sapiens, UniProt Q08881)
pIC50: −log10 of the molar value.
Reported Endpoint: pIC50

Request: Lookup: pIC50 / Tyrosine-protein kinase ITK/TSK (Homo sapiens, UniProt Q08881) / `COc1ncc(-c2cc3c(c(NC(=O)CN4CCOCC4)c2)COC3)cc1NS(C)(=O)=O`
Result: < 5.00

* * *

# Test Method Notes: Drug uptake in Wistar Han rat blood at 1 mg/kg measured 1 hr post dose
# Assay type: ADME, organism-based
# Details: read-out: Drug uptake
Reported Endpoint: concentration at 1 h (nM)
Quick note: give the figure in nM, leave out the unit.

Request: Give its concentration at 1 h value. Item: `COc1ncc(-c2cc3c(c(NC(=O)CN4CCOCC4)c2)COC3)cc1NS(C)(=O)=O`
Result: 520
